// provenance: patent US5409933A

Tested on: Salmonella typhimurium
assay: In Vitro Anti-Bacterial Activity Test (MIC, agar dilution)
Type: cell-based
testSettings: Salmonella enterica; Salmonella typhimurium; Muller-Hinton agar, 37° C., 18 hours; read-out: MIC
Where a name gives a salt, the structure may show the parent alone.
For each record, write down the corresponding MIC.
Numbers only, in ng/mL.

Sample records with MIC:
compound	targetOfAssay	measurementName	valueReported
CCOC(=O)C(C(=O)OCC)C(=O)c1cn(C2CC2)c2c(Cl)c(N3CC[C@@H](N)C3)c(F)cc2c1=O [Example 23, hydrochloride]	Salmonella typhimurium	MIC	4
O=C(C[N+](=O)[O-])c1cn(C2CC2)c2cc(N3CCNCC3)c(F)cc2c1=O [Example 4, hydrochloride]	Salmonella typhimurium	MIC	7
N#CCC(=O)c1cn(C2CC2)c2c(Cl)c(N3CC4=C(CNC4)C3)c(F)cc2c1=O [Example 44, hydrochloride]	Salmonella typhimurium	MIC	195

# input for lookup
Consider the compound CCOC(=O)C(C(=O)OCC)C(=O)c1cn(C2CC2)c2c(Cl)c(N3CC=C(CNC)C3)c(F)cc2c1=O [Example 28, hydrochloride] and give its measured MIC.
13

====

System: Escherichia coli DC2
assay: In Vitro Anti-Bacterial Activity Test (MIC, agar dilution)
Type: cell-based
testSettings: Escherichia coli, DC2, 18 h
Structures can show the parent of a compound that is named as a salt.
measurementName: MIC (µg/mL)
One number for each entry, in µg/mL.

Quick batch: MIC for everything below.
1. NCC1CCN(c2c(F)cc3c(=O)c(C(=O)C[N+](=O)[O-])cn(C4CC4)c3c2Cl)C1 (stereo not shown) [Example 53, hydrochloride]
2. N#CCC(=O)c1cn(C2CC2)c2c(Cl)c(N3CC4=C(CNC4)C3)c(F)cc2c1=O [Example 44, hydrochloride]

0.049
1.56

I would be grateful if you could provide MIC for each of the following entries.
1. NC1CCN(c2c(F)cc3c(=O)c(C(=O)CC(=O)C(F)(F)F)cn(C4CC4)c3c2Cl)C1 (stereo not shown) [Example 38, hydrochloride]
2. CCOC(=O)C(C(=O)OCC)C(=O)c1cn(C2CC2)c2c(OC)c(N3CC[C@@H](NC)C3)c(F)cc2c1=O [Example 58, hydrochloride]

0.098
0.195

====

Tested on: Salmonella typhimurium
assay: In Vitro Anti-Bacterial Activity Test (MIC, agar dilution)
Format: cell-based
testSettings: Salmonella enterica; Salmonella typhimurium; Muller-Hinton agar, 37° C., 18 hours; read-out: MIC
Structures can show the parent of a compound that is named as a salt.
measurementName: MIC (µg/mL)
Answers are plain numbers, in µg/mL.

Field: example entries. Status: answers known.
compound	resultUnits	valueReported
CCOC(=O)C(C#N)C(=O)c1cn(C2CC2)c2c(Cl)c(N3CC4=C(CNC4)C3)c(F)cc2c1=O (stereo not shown) [Example 41, hydrochloride]	µg/mL	0.098
CCOC(=O)C(C(N)=O)C(=O)c1cn(C2CC2)c2c(Cl)c(N3CCC(N)C3)c(F)cc2c1=O (stereo not shown) [Example 52, hydrochloride]	µg/mL	0.013
CC(=O)CC(=O)c1cn(C2CC2)c2c(Cl)c(N3CCC(N)C3)c(F)cc2c1=O (stereo not shown) [Example 37, hydrochloride]	µg/mL	0.195
Cc1c(F)c(N2CCNC(C)C2)cc2c1c(=O)c(C(=O)C[N+](=O)[O-])cn2C1CC1 (stereo not shown) [Example 51, hydrochloride]	µg/mL	0.025
CCOC(=O)C(C(=O)OCC)C(=O)c1cn(C2CC2)c2c(Cl)c(N3CCC(N)C3)c(F)cc2c1=O (stereo not shown) [Example 22, hydrochloride]	µg/mL	0.004
NC1CCN(c2cc3c(cc2F)c(=O)c(C(=O)C[N+](=O)[O-])cn3-c2ccc(F)cc2F)C1 (stereo not shown) [Example 9, hydrochloride]	µg/mL	0.007

Required: MIC, one value per compound below.
1. CC1CN(c2c(F)cc3c(=O)c(C(=O)C[N+](=O)[O-])cn(C4CC4)c3c2F)CCN1 (stereo not shown) [Example 7, hydrochloride]
2. NC1CCN(c2nc3c(cc2F)c(=O)c(C(=O)C[N+](=O)[O-])cn3-c2ccc(F)cc2F)C1 (stereo not shown)
3. CCOC(=O)CC(=O)c1cn(C2CC2)c2c(Cl)c(N3CCC(N)C3)c(F)cc2c1=O (stereo not shown) [Example 25, hydrochloride]
4. CCn1cc(C(=O)C[N+](=O)[O-])c(=O)c2cc(F)c(N3CCC(N)C3)c(F)c21 (stereo not shown) [Example 30, hydrochloride]
5. O=C(C[N+](=O)[O-])c1cn(C2CC2)c2c(Cl)c(N3CC4=C(CNC4)C3)c(F)cc2c1=O [Example 34, hydrochloride]
6. CCOC(=O)C(C(=O)OCC)C(=O)c1cn(C2CC2)c2c(OC)c(N3CC[C@H](NC)C3)c(F)cc2c1=O [Example 59, hydrochloride]

[0.098, 0.007, 0.004, 0.781, 0.004, 0.049]

Quick batch: MIC for everything below.
1. CN[C@H]1CCN(c2c(F)cc3c(=O)c(C(=O)C[N+](=O)[O-])cn(C4CC4)c3c2OC)C1 [Example 65, hydrochloride]
2. N#CC(C#N)C(=O)c1cn(C2CC2)c2c(Cl)c(N3CCC(N)C3)c(F)cc2c1=O (stereo not shown) [Example 45, hydrochloride]
3. CCOC(=O)C(C(=O)OCC)C(=O)c1cn(C2CC2)c2c(Cl)c(N3CC4=C(CNC4)C3)c(F)cc2c1=O [Example 36, hydrochloride]
4. NCC1CCN(c2c(F)cc3c(=O)c(C(=O)C[N+](=O)[O-])cn(C4CC4)c3c2Cl)C1 (stereo not shown) [Example 53, hydrochloride]
5. CCOC(=O)C(C#N)C(=O)c1cn(C2CC2)c2c(Cl)c(N3CC=C(CNC)C3)c(F)cc2c1=O (stereo not shown) [Example 40, hydrochloride]
6. CNC1CCN(c2c(F)cc3c(=O)c(C(=O)C[N+](=O)[O-])cn(C4CC4)c3c2Cl)C1 (stereo not shown) [Example 63, hydrochloride]
7. CS(=O)(=O)CC(=O)c1cn(C2CC2)c2c(Cl)c(N3CCC(N)C3)c(F)cc2c1=O (stereo not shown) [Example 33, hydrochloride]

1. 0.781
2. 0.098
3. 0.025
4. 0.013
5. 0.195
6. 0.004
7. 0.781

Request the reported MIC associated with CS(=O)(=O)CC(=O)c1cn(C2CC2)c2c(Cl)c(N3CC4=C(CNC4)C3)c(F)cc2c1=O [Example 47, hydrochloride]
0.098
